molecular target: Spen RRM2-4 RRM3 Mt ((SHARP named as human homolog for the pET28a constructs; gene listed as mouse NM_019763.2)) (UniProt Q96T58); experiment: fluorescence anisotropy; details: pH 8.3; FA: 45 mM KCl, 5 mM NaCl, 50 mM Tris pH 7.5 (WT) or 8.3 (RRM3 Mt), 5% glycerol, RNA 1-3 nM, room temperature 40-60 min; competition EMSA: 50 mM Tris pH 7.5 …
Sequence (Q96T58 whole entry): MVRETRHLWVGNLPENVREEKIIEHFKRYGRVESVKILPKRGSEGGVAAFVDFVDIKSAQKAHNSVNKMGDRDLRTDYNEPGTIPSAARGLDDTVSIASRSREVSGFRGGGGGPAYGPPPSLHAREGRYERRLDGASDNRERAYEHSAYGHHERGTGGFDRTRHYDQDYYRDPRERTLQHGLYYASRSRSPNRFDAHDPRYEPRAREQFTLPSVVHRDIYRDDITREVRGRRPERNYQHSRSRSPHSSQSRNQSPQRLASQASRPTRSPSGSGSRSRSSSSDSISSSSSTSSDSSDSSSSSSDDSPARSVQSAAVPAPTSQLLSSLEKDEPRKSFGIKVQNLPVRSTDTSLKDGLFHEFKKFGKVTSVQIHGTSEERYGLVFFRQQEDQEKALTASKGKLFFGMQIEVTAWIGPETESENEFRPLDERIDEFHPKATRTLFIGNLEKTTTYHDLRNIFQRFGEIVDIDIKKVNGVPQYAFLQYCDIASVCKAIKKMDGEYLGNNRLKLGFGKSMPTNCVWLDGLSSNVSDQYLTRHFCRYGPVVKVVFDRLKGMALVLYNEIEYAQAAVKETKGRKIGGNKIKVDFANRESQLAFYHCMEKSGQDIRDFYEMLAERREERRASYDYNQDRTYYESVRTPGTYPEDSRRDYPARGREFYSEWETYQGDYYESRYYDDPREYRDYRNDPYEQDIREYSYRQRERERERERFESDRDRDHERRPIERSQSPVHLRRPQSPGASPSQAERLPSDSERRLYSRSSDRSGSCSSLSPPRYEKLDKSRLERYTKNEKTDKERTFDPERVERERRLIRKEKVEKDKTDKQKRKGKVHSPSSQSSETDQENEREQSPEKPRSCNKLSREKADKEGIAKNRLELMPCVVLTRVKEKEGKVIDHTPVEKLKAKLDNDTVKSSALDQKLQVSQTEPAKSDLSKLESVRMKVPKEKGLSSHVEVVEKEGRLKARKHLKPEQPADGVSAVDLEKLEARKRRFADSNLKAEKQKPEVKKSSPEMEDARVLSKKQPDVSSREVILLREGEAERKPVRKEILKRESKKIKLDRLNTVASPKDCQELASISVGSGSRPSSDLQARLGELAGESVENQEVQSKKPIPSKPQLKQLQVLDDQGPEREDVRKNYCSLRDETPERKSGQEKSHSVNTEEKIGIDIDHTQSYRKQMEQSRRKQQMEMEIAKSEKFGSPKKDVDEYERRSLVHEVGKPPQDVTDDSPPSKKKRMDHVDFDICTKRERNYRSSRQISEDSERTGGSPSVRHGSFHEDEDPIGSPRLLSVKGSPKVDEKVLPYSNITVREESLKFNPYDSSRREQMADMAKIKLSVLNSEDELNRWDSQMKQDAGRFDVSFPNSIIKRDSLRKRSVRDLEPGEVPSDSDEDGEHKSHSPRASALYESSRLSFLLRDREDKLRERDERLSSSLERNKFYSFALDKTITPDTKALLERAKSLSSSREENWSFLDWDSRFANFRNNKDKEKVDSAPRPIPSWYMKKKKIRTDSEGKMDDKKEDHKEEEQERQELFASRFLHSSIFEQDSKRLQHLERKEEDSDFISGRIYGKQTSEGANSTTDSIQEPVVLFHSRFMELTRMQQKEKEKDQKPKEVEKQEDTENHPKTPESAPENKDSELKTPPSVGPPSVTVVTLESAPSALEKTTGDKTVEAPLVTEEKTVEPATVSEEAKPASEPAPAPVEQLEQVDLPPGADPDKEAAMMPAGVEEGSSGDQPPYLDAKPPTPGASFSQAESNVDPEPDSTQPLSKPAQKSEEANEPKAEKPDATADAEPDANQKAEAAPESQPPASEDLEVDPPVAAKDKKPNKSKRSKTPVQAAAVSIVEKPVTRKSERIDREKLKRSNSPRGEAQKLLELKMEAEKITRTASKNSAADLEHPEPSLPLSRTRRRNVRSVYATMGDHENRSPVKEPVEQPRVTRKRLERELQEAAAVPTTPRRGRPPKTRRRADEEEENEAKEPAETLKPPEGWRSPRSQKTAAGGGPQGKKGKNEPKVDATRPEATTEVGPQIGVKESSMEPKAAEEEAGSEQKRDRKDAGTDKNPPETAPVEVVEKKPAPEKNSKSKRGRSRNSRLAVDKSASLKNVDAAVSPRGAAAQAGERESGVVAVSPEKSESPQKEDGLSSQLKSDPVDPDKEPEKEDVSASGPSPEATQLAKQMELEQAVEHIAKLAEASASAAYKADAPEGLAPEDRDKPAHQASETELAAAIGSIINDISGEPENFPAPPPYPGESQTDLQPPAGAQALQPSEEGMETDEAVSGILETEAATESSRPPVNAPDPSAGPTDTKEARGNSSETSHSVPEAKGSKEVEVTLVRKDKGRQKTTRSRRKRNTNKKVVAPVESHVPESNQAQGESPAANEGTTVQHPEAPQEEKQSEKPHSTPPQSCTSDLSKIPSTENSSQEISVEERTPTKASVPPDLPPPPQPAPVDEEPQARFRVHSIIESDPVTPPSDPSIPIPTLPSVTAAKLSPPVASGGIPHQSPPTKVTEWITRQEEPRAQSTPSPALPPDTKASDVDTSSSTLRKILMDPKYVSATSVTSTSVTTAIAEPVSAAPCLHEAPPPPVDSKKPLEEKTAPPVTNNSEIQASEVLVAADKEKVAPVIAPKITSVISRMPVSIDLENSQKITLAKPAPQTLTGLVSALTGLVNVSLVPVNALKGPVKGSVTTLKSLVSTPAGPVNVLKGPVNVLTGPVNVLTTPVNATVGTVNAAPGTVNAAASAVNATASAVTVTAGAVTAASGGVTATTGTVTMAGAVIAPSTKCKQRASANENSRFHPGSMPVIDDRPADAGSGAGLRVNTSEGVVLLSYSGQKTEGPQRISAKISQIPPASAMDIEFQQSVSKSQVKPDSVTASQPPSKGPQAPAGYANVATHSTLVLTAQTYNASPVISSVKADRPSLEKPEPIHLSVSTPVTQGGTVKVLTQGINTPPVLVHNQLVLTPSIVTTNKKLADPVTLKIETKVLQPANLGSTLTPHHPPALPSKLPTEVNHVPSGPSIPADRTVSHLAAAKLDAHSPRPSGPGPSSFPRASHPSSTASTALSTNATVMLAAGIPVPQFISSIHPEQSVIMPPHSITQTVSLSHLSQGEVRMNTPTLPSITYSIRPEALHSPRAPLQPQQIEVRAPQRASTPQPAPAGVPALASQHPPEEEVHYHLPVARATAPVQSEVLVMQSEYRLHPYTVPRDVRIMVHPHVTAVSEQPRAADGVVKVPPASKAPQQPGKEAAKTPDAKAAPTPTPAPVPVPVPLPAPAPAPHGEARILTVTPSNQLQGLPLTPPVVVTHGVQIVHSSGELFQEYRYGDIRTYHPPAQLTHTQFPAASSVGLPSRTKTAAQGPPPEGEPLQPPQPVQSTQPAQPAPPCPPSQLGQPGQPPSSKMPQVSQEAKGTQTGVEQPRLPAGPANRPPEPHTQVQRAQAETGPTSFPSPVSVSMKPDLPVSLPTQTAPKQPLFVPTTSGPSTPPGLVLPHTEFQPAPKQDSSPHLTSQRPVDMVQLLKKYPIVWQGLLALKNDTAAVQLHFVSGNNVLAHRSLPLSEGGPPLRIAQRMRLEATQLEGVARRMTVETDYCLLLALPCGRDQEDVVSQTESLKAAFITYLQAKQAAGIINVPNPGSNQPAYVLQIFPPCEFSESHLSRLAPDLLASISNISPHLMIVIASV
measurement.kind: binding signal (affinity relative to RRM2-4)

| construct.sequence | value.observed |
| --- | --- |
| GAAAUUUCUCUCUGGGCCUUAUAGCAGGAGUACUCUGUUCCCUUUUGUGUCUUGUCUAAUGUCCGGUGCACCAAUCUGUUCUCGUGUUCAAUUCAUGUAUGUUCGUGUCCAGU [ERV 495 (113 nt)] | 0.5 |
| GGUUAAAACUGCUAUUGUUCCAUUGACUGCAGCUUGCAGUUUGAUUUCAAAUUUAAGAUCUUUAAUUCACCUGUAUACUGUAAUUAAGAUAAUUACAAGAGUAAUCAUCUUAUG [ERV 509 (114 nt)] | 0.5 |
| GGUACCUUAAAUCCUUGCUCUCACCCAAAAGAUUCAGAGACAAUAUCCUUUUAUUACUUAGGGUUUUAGUUUACUACAAAAGUUUCUACAAAAAAUAAAGCUUUUAUAA [ERV 411 (109 nt)] | 0.5 |
| GGAACUCGUUCCUUCUCCUUAGCCCAUCGGGGCCAUGGAUACCUGCUUUUAACCUUUCUCGGUCCAUCGGGACCUCGGAUACCUG [Xist A-repeat (85 nt)] | 0.5 |
| GAUUCCAGGCAGAACUGUUGAGCAUAGAUAAUUUUCCCCCCUCAGGCCAGCUUUUUCUUUUUUUAAAUUUUGUUAAUAAAAGGGAG [ERV 205 (86 nt)] | 0.5 |
| GAUCAGAGUAACUGUCUUGGCUACAUUCUUUUCUCUCGCCACCUAGCCCCUCUUCUCUUCCAGGUUUCCAAAAUGCCUUUCCAGGCUAGAACCCAGGUUGUGGUCUGCUGG [ERV 302 (111 nt)] | 0.5 |
